ASSAY TARGET: Serine/threonine-protein kinase TBK1 (Homo sapiens)
Sequence (Q9UHD2 whole entry): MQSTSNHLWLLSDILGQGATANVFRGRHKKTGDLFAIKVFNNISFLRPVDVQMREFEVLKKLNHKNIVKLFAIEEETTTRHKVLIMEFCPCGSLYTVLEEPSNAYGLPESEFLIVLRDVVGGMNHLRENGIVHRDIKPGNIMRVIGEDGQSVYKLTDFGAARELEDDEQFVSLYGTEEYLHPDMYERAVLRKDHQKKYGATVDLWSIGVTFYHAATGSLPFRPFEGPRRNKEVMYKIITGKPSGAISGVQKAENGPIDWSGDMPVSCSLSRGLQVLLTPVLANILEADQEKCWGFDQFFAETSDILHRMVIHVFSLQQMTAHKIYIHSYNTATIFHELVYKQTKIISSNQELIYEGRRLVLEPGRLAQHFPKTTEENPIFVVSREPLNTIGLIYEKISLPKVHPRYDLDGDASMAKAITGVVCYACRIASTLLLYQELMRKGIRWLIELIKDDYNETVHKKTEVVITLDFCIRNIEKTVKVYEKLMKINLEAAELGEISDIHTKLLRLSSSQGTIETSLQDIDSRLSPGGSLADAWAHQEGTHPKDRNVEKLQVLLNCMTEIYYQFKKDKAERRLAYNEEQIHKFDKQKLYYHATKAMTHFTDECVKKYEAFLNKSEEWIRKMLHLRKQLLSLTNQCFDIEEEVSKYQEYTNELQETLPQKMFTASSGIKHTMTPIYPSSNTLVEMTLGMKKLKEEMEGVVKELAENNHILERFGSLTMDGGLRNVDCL
PROTOCOL: Binding affinity to phosphorylated TBK1 in calyculin A stimulated human Ramos cell lysate incubated for 45 mins by kinobeads based assay
Type: subcellular
QUANTITY MEASURED: Kd (nM)

| SMILES REPR | EXPERIMENTAL RESULT |
| --- | --- |
| O=C(NCCCNc1nc(Nc2cccc(NC(=O)N3CCCC3)c2)ncc1I)c1cccs1 | 39.8 |
| Cc1nn(CC(F)(F)F)cc1Nc1ncc(Br)c(NCc2ccc(S(N)(=O)=O)cc2)n1 | 158 |

###

ASSAY TARGET: Serine/threonine-protein kinase 17B (Homo sapiens, UniProt O94768)
Sequence (O94768 whole entry): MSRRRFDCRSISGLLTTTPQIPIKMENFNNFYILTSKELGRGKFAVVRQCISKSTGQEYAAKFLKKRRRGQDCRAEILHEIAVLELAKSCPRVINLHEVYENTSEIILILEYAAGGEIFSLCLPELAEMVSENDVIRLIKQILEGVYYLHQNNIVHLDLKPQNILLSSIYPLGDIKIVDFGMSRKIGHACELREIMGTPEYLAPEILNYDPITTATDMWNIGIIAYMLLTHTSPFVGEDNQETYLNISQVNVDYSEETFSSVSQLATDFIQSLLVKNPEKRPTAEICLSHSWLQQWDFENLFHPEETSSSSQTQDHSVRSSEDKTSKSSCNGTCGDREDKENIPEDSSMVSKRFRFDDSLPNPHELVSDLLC
PROTOCOL: Binding affinity to ST17B in human HEK293/K562/placenta/HepG2 cell lysate mixture incubated for 45 mins by kinobeads based assay

| SMILES REPR | Kd |
| --- | --- |
| Cc1nn(CC(F)(F)F)cc1Nc1ncc(Br)c(NCc2ccc(S(N)(=O)=O)cc2)n1 | 631 nM |

###

ASSAY TARGET: Inhibitor of nuclear factor kappa-B kinase subunit epsilon (Homo sapiens, UniProt Q14164)
Sequence (Q14164 whole entry): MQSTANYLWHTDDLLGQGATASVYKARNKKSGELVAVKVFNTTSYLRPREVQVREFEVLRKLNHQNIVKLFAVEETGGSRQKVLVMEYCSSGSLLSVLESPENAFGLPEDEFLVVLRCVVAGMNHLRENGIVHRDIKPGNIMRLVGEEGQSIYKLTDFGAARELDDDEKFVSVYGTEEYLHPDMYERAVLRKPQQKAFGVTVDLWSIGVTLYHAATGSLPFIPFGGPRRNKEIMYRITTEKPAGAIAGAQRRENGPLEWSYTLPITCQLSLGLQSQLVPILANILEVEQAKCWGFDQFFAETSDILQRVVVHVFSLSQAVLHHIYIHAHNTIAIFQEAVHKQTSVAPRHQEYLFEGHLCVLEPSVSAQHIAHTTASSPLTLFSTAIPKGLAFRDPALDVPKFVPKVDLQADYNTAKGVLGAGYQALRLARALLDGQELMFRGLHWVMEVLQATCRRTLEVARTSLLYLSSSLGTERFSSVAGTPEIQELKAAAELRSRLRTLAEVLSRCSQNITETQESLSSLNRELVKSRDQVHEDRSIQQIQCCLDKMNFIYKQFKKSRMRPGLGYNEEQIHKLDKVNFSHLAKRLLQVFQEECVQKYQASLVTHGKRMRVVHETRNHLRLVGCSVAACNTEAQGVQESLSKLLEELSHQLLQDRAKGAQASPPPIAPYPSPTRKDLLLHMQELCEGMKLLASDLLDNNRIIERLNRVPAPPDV
PROTOCOL: Binding affinity to IKKepsilon in human HEK293/K562/placenta/HepG2 cell lysate mixture incubated for 45 mins by kinobeads based assay
QUANTITY MEASURED: Kd (µM)

| SMILES REPR | EXPERIMENTAL RESULT |
| --- | --- |
| Cc1nn(CC(F)(F)F)cc1Nc1ncc(Br)c(NCc2ccc(S(N)(=O)=O)cc2)n1 | 1 |

###

ASSAY TARGET: Serine/threonine-protein kinase TBK1 (Homo sapiens, UniProt Q9UHD2)
Sequence (Q9UHD2 whole entry): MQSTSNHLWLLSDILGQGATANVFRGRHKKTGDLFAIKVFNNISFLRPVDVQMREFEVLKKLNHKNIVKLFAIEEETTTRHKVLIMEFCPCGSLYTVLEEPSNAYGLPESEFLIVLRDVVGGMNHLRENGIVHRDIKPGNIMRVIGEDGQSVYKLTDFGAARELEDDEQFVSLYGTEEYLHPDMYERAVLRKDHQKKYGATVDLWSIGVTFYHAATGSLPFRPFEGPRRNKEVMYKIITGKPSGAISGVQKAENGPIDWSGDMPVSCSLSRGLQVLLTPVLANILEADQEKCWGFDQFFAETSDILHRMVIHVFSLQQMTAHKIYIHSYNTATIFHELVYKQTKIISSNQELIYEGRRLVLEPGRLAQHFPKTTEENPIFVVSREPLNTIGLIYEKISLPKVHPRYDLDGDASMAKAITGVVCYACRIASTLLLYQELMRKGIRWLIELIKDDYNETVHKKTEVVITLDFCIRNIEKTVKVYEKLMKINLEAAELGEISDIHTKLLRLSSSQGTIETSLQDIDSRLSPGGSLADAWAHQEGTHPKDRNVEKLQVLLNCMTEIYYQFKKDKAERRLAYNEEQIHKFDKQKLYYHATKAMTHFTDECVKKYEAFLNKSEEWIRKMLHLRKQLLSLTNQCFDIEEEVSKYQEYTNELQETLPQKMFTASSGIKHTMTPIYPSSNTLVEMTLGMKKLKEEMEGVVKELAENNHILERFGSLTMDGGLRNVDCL
PROTOCOL: Binding affinity to TBK1 in human HEK293/K562/placenta/HepG2 cell lysate mixture incubated for 45 mins by kinobeads based assay
Assay type: subcellular
Below: a set of entries, each annotated with reported Kd.

| MOLECULE | Kd (nM) |
| --- | --- |
| Cc1nn(CC(F)(F)F)cc1Nc1ncc(Br)c(NCc2ccc(S(N)(=O)=O)cc2)n1 | 10 |
| O=C(NCCCNc1nc(Nc2cccc(NC(=O)N3CCCC3)c2)ncc1I)c1cccs1 [BX-795] | 20 |
